Sourced from PubChem BioAssay (NCI)

- Test system: OVCAR-4 ovarian
- PROCEDURE TEXT: NCI tumour cell line growth inhibition, 48 h
ATTRIBUTE MEASURED: TGI

Consider the worked cases shown below.
MOLECULE | TGI
COc1ccc(N2C(=O)C(C)SC2c2cc3cc(Br)ccc3nc2Cl)cc1 (centres undefined) | > 100 µM
COC(=O)C(Cc1ccc(Oc2cc(CC(NC(=O)c3ccccc3)C(=O)OC)ccc2OC)cc1)NC(=O)c1ccccc1 (centres undefined) | > 72.5 µM
Oc1ccccc1CNCC12CC3CC(CC(C3)C1)C2 | > 100 µM

Let's switch to this molecule now.
Given the entry "Cc1ccc(C)n1-c1ccccc1C1C=CN(C(=O)OC(C)(C)C)C=C1" , report its measured TGI.
> 100 µM
